The reported measurements were obtained from patent US7332279B2.

measured target: β3Gal-T5 (Homo sapiens, UniProt Q9Y2C3, M85T)
Construct: designed to exclude the hydrophobic transmembrane segment and to encode amino acid residues 25-310; secretion signal of vector pAcGP67B (gp67); made in house; host or cells: baculovirus; Sf9 cells (media) and High Five cells (serum-free medium, partially purified)
Sequence (Q9Y2C3 25-310 M85T): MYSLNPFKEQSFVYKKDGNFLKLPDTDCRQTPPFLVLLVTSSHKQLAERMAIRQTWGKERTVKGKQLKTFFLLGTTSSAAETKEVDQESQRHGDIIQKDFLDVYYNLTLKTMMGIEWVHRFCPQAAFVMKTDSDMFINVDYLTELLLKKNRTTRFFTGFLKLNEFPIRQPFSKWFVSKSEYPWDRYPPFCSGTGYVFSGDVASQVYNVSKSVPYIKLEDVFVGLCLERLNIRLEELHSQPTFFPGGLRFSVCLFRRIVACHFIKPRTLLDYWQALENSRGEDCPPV
protocol details: Galactosyltransferase assay, partially purified secreted recombinant β3Gal-T5, saccharide acceptors
Assay type: biochemical
assay conditions: acceptor 5 mM
measure name: β3Gal-T5 activity, substrate concentration 5 mM (nmol/min/mL)

Sample records with β3Gal-T5 activity, substrate concentration 5 mM:
CC(=O)NC1C(OC2C(OCC3OC(O)C(O)C(OC4OC(CO)C(O)C(O)C4OC4OC(CO)C(O)C(O)C4NC(C)=O)C3O)OC(CO)C(O)C2O)OC(CO)C(O)C1O (stereo not drawn); 0.0
COC1OC(COC2OC(CO)C(O)C(O)C2NC(C)=O)C(O)C(O)C1O [β-D-GlcNAc-(1–6)-α-D-Man-1-Me]; 13.0
CC(=O)N[C@H]1[C@H](Oc2ccc3c(C)cc(=O)oc3c2)O[C@H](CO)[C@@H](O)[C@@H]1O [β-D-GlcNAc-Me-umb]; 7.5

[A] O=[N+]([O-])c1ccccc1O[C@H]1O[C@H](CO)[C@H](O)[C@H](O)[C@H]1O [α-D-Gal-1-o-Nph]
[B] CC(=O)N[C@H]1[C@H](Oc2ccc([N+](=O)[O-])cc2)O[C@H](CO)[C@@H](O)[C@@H]1O [β-D-GlcNAc-1-p-Nph]
[C] CC(=O)NC1C(OC2C(O)C(CO)OC(Oc3ccc([N+](=O)[O-])cc3)C2NC(C)=O)OC(CO)C(O)C1O [β-D-GlcNAc-(1–3)-α-D-GalNAc-p-Nph]
// smallest β3Gal-T5 activity, substrate concentration 5 mM at index 0, largest at the end List the labels, following the order given in the request. A, B, C
(A: 0.0 nmol/min/mL, B: 6.9 nmol/min/mL, C: 34.4 nmol/min/mL)
